assay: Binding affinity to 5'-FPu22T-3'-labelled c-myc G-quadruplex DNA (unknown origin) assessed as change in melting temperature by FRET assay
Readout Type: ΔTm (°C)

| Smiles Notation | Unit Name | Assay Result |
| --- | --- | --- |
| CCN(CC)CC(=O)Nc1ccc(Nc2nc(-c3ccccc3NC(=O)CN(CC)CC)nc3ccccc23)cc1 | °C | 8.8 |
| O=C(CCN1CCCCC1)Nc1ccc(Nc2nc(-c3ccccc3NC(=O)CCN3CCCCC3)nc3ccccc23)cc1 | °C | 17.9 |
| CCN(CC)CC(=O)Nc1ccc(Nc2nc(Cl)nc3ccccc23)cc1 | °C | 0.1 |
| O=C(CCN1CCCC1)Nc1ccc(Nc2nc(-c3ccccc3NC(=O)CCN3CCCC3)nc3ccccc23)cc1 | °C | 14.2 |

1: CN1CCN(CC(=O)Nc2ccc(Nc3nc(-c4ccccc4NC(=O)CN4CCN(C)CC4)nc4ccccc34)cc2)CC1
2: CN(C)CCNCCC(=O)Nc1ccc(Nc2nc(-c3ccccc3NC(=O)CCNCCN(C)C)nc3ccccc23)cc1
**Query** Sorting by ΔTm in descending order, would 1 or 2 appear first? Mark your selection by writing its label.
**Result** 2
(2: 19.4 °C, 1: 12.5 °C)

I: CN1CCN(CCC(=O)Nc2ccc(Nc3nc(-c4ccccc4NC(=O)CCN4CCN(C)CC4)nc4ccccc34)cc2)CC1
II: Oc1ccccc1-c1nc(Nc2ccc(OCCN3CCCCC3)cc2)c2ccccc2n1
**Query** Field: lower ΔTm | Options: I / II Pick one; state its label.
**Result** II
(II: 1.4 °C, I: 13.2 °C)

====

assay: Binding affinity to biotinylated 5'-Pu22-3'-labelled c-myc G-quadruplex DNA (unknown origin) after 240 secs by SPR assay
Readout Type: Kd (nM)

Solved entries:
| Smiles Notation | Assay Result |
| --- | --- |
| CCN(CC)CCCCC(=O)Nc1ccc(Nc2nc(-c3ccccc3NC(=O)CCCCN(CC)CC)nc3ccccc23)cc1 | 520 |
| CCN(CC)CCCNCCC(=O)Nc1ccc(Nc2nc(-c3ccccc3NC(=O)CCNCCCN(CC)CC)nc3ccccc23)cc1 | 1600 |
| CCN(CC)CCC(=O)Nc1cc(Cl)ccc1-c1nc(NCCCN(C)C)c2ccccc2n1 | 490 |

I: CCN(CC)CCCC(=O)Nc1ccc(Nc2nc(-c3ccccc3NC(=O)CCCN(CC)CC)nc3ccccc23)cc1
II: CCN(CC)CCCOc1ccc(Nc2nc(N(CC)CC)nc3ccccc23)cc1
III: CCN(CC)CC(=O)Nc1ccc(Nc2nc(-c3ccccc3NC(=O)CN(CC)CC)nc3ccccc23)cc1
IV: CCN(CC)CC(=O)Nc1ccc(Nc2nc(-c3ccc(O)cc3)nc3ccccc23)cc1
**Query** Order the records so the highest Kd appears first and the lowest last. Returns: the labels arranged in the requested order.
**Result** IV, III, II, I

I: CN(C)CCCNCCC(=O)Nc1ccc(Nc2nc(-c3ccccc3NC(=O)CCNCCCN(C)C)nc3ccccc23)cc1
II: O=C(CCN1CCOCC1)Nc1ccc(Nc2nc(-c3ccccc3NC(=O)CCN3CCOCC3)nc3ccccc23)cc1
**Query** Endpoint returns the identifier whose Kd is numerically larger, either I or II . Respond with the label that goes with your answer.
**Result** II
(II: 1330 nM, I: 570 nM)

// provenance: ChEMBL document CHEMBL3865800
